- TEST_SUMMARY: Lipophilicity, log D of the compound at pH 7.4
- Assay type: physicochemical
- EXPERIMENTAL_CONTEXT: buffer
PROPERTY: logD

1. COc1nc(NC(=O)C2(NC(=O)c3ccc4c(c3)c(C)c(-c3ccc(F)cn3)n4C3CCCCC3)CCC2)ccc1/C=C/C(=O)O ... 4.2
2. COc1nc(NC(=O)C(C)(C)NC(=O)c2ccc3c(C4CCCC4)c(-c4ncc(Br)cn4)n(C)c3c2)ccc1/C=C/C(=O)O ... 3.2
3. CCOc1nc(NC(=O)C2(NC(=O)c3ccc4c(C5CCCC5)c(-c5cnccn5)n(C)c4c3)CCCC2)cnc1/C=C/C(=O)O ... 3.2
4. CCOc1nc(NC(=O)C(C)(C)NC(=O)c2ccc3c(C4CCCC4)c(-c4cncnc4)n(C)c3c2)ccc1/C=C/C(=O)O ... 3
5. CCOc1nc(NC(=O)C(C)(C)NC(=O)c2ccc3c(C4CCCC4)c(-c4ccccn4)n(C)c3c2)ccc1/C=C/C(=O)O ... 3.5
6. CCOc1nc(NC(=O)C(C)(C)NC(=O)c2ccc3c(C4CCCC4)c(-c4cnccn4)n(C)c3c2)ccc1/C=C/C(=O)O ... 2.9
7. CCOc1nc(NC(=O)C(C)(C)NC(=O)c2ccc3c(C4CCCC4)c(-c4cnccn4)n(C)c3c2)cnc1/C=C/C(=O)O ... 2.4
8. COc1nc(NC(=O)C(C)(C)NC(=O)c2ccc3c(C4CCCC4)c(-c4ncc(Cl)cn4)n(C)c3c2)ccc1/C=C/C(=O)O ... 3.3
9. CCOc1nc(NC(=O)C2(NC(=O)c3ccc4c(C5CCCC5)c(-c5cncnc5)n(C)c4c3)CCCC2)cnc1/C=C/C(=O)O ... 2.8
10. COc1nc(NC(=O)C(C)(C)NC(=O)c2ccc3c(C4CCCC4)c(-c4ncc(Br)cn4)n(C)c3c2)cnc1/C=C/C(=O)O ... 2.6

(1) COc1nc(NC(=O)C(C)(C)NC(=O)c2ccc3c(C4CCCC4)c(-c4ncc(Cl)cn4)n(C)c3c2)cnc1/C=C/C(=O)O
(2) CCOc1nc(NC(=O)C2(NC(=O)c3ccc4c(C5CCCC5)c(-c5ncc(Br)cn5)n(C)c4c3)CCC2)cnc1/C=C/C(=O)O
Inquiry: Endpoint returns the identifier whose logD is numerically larger, either 1 or 2 . Refer to your chosen entry by its label in the reply.
Reply text: 2
(2: 4.2, 1: 2.6)
